# testConditions: pH 6.8
The reader will find reported aqueous solubility values listed item by item below.
Respond numerically; units are mg/mL and should not be typed.

These solved cases illustrate the format of a correct answer.
>>> df
                            substancesmiles  measurednumber
0  Cc1cc(C(=O)N2CCOC(C)(C)C2)cc(C)c1OCc1cccnc1          0.0489
1  Cc1nc(C)c2c(C)c(C(=O)N(C)CCN3CCCC3)sc2n1          0.0609
2      Cc1nccc(-c2cn(Cc3ccccc3)c3cnccc23)n1          0.0337
3    Cc1nc(-c2ccc(Cl)c(Cl)c2)n(CC(C)(C)O)n1          0.0419

[in] Dear colleague, please send me the reported aqueous solubility for `CN(C(=O)c1cncc(F)c1)c1cccc2ncccc12` when you can.
[out] 0.0618

[in] Dear colleague, please send me the reported aqueous solubility for `Cn1c(C2CC2)nc2c1CCN(c1ncnc3ccsc13)C2` when you can.
[out] 0.0504
